Each recorded value in this set is attributed to PubChem BioAssay (NCI).

Tested on: OVCAR-8 ovarian
test: NCI-60 one-dose screen, 48 h (100 = growth as untreated, 0 = no growth, -100 = all killed)
applied_conditions: 10 µM unless noted
This is part of a sample that, as a whole, favours compounds with a hit. Of some 83,000 tested, about 20% had one in any assay.
Record form. Attribute: growth. Fill in for each entry.
Give bare numbers, in %.

Solved entries:
COc1cc(/C=C2\C(=O)N(CCCCn3c4ccccc4c(=O)c4ccccc43)c3ccccc32)cc(OC)c1O	50.1
COc1cc(-c2nc(SCCC(C)C)nc(Nc3ccc(F)cc3)c2C#N)cc(OC)c1OC	40.7

Now look at this entry.
**Query** Give a short answer stating reported growth for O=C(/C=C/C12c3ccccc3C(c3ccccc31)C1C(=O)NC(=O)C12)c1ccncc1 (stereo not drawn) .
**Result** 1.79

* * *

Tested on: HT29 colon
test: NCI-60 one-dose screen, 48 h
applied_conditions: 10 µM unless noted
The panel holds about 83,000 compounds, 20% with a hit somewhere; the sample as a whole holds those more often. Active and inactive are the calls of the source. The calls were made as follows: active = growth percent below 10; inactive = the rest.
Pick one and only one: active, inactive

Answered cases to consult:
C=C1C(=O)O[C@H]2[C@H]1CC/C(COC(=O)NCCCCNC(=O)OC/C1=C/CC[C@@]3(C)O[C@H]3[C@H]3OC(=O)C(=C)[C@@H]3CC1)=C\CC[C@@]1(C)O[C@@H]21	active
CCN(CC)/C([O-])=c1\cccc\c1=C1\N=C(c2ccccc2)N=C1[n+]1ccc(-c2ccccc2)cc1	inactive
Cc1cc2nc(C(Cl)Cl)nc(-c3ccc(Cl)cc3)n2n1	active

**Query** I'd appreciate the recorded outcome for COc1ccc(Cl)cc1Nc1nc(C(F)(F)F)ccc1C(=O)N/N=C/c1ccc(N(C)C)cc1 from this test.
**Result** inactive

**Query** Hi, do you know how Cn1cc2c(=O)nc3c(-c4nc5ccccc5[nH]4)n[nH]n3c2n1 came out in this test?
**Result** inactive

**Query** Dear all, I need the recorded test outcome for CN1C(=O)N(C)C2(c3ccccc3)N(CC(=O)Nc3ccccc3O)C(=O)NC12c1ccccc1 (configuration not stated) , thank you.
**Result** inactive

**Query** Each compound tested received a call. Report the one for Cn1ccnc1CN1CCSC(C(=O)Nc2ccccc2)C1 (configuration not stated) .
**Result** inactive

**Query** Please share the test call associated with CCCCC1COc2cccc3c2N1C=C/C3=C\C(=O)N(C)c1cccc(Cl)c1 (configuration not stated) .
**Result** inactive

**Query** Can you look up the reported call for C#CCOCC1CN(C)C(=O)O1 (configuration not stated) for me?
**Result** inactive

**Query** Could you check what this test reported for O=C1C(Nc2ccc(Cl)cc2)=C(I)C(=O)c2ncccc21 ?
**Result** inactive

**Query** // outcome(item) with item = CCn1cc(C(=O)NN=C2CCCC2)c(=O)c2ccc(C)nc21
**Result** inactive

**Query** Outcome? OCCN1CCN(c2cc(-c3cccc(OC(F)(F)F)c3)nc3ccc(N4CCCC4)cc23)CC1
**Result** active

* * *

Tested on: HT29 colon
test: NCI-60 one-dose screen, 48 h
applied_conditions: 10 µM unless noted
This is part of a sample that, as a whole, favours compounds with a hit. Of some 83,000 tested, about 20% had one in any assay. Active and inactive are the calls of the source. The calls were made as follows: active = growth percent below 10; inactive = the rest.
Lab note: assign the record to one of True for active, False for inactive

These solved cases illustrate the format of a correct answer.
COc1cc(-c2[nH]ncc2Nc2ccc(Cl)cc2)cc(OC)c1OC	False
CCCN1C(=O)/C(=c2\sc3n(c2=O)C2C(NN=3)N(CC)C(=O)N2CC)c2ccccc21 (stereo not drawn)	True
O=C(CCN1CCOCC1)Nc1cccc(-n2cc(-c3ccncc3)c(-c3ccc(Cl)c(O)c3)n2)c1	True
N#CC1=C(N)Oc2c(sc3c(Br)cccc23)C1c1ccccn1 (stereo not drawn)	False

**Query** Recorded test outcome, item CC1=C2[C@@H](CC1)[C@]1(C)O[C@@](C(C)C)(C[C@H]1OC(=O)CO)[C@H]2OC(=O)C1CC1c1ccccc1 (stereo partly drawn)
**Result** False

**Query** What call does the record list for COC(=O)c1c2c(c(C)[n+]([O-])c1C)C(=O)C(NCCN1CCOCC1)=CC2=O ?
**Result** False

**Query** Dear colleague, could you share the recorded outcome for Cc1ccc(-c2nc3nc(-c4ccccc4)nc(N4CCCNCC4)c3o2)cc1 when you have a moment?
**Result** True

**Query** Assay outcome for Cc1cc(N2CCN(CC(=O)Nc3ccc4c(ccn4Cc4ccccc4)c3)CC2)nc(N2CCCCCC2)n1 : what was it?
**Result** True

**Query** State the result this test recorded for Cc1c(O)c(O)cc2c3c(oc12)CC(c1ccc2c(c1)OCO2)CC3=O (stereo not drawn) .
**Result** False

**Query** I'd appreciate the recorded outcome for O=C(CCCOc1ccc(Br)cc1)Nc1ncc(Cc2ccc(F)cc2)s1 from this test.
**Result** False

**Query** In this assay, the call recorded for CCCCCCCCCCCCCCCCCCOc1cccc(CC(=O)OCC[N+](CC)(CC)CC)c1 was what?
**Result** False

**Query** Hi, sorry to bother you, what did the test record for O=C1Nc2ccccc2/C1=C/c1cccn1CCCCCn1c2ccccc2c(=O)c2ccccc21 ?
**Result** False

**Query** Please state the recorded outcome for this molecule: COc1cc2nc3cc([N+](=O)[O-])ccc3c(NCCNCC(C)(C)O)c2cc1OC
**Result** True

* * *

Test system: K-562 leukemia
test: NCI-60 one-dose screen, 48 h (100 = growth as untreated, 0 = no growth, -100 = all killed)
applied_conditions: 10 µM unless noted
About 83,000 compounds went through this panel and 20% of them were active in at least one assay; those are over-represented in the sample as a whole.
Label 1.0 when growth < 70%; otherwise 0.0.

C=C(C)[C@@H]1CC[C@]2(C(=O)N3CCN(C)CC3)CC[C@]3(C)[C@H](CC[C@@H]4[C@@]5(C)CC(CCCNC(C)=O)(CCCNC(C)=O)[C@H](OC(C)=O)C(C)(C)[C@@H]5CC[C@]43C)[C@@H]12	0.0
CC(C)(C)c1cc(C(C)(C)c2ccccc2)cc(Cc2cc(C(C)(C)c3ccccc3)cc(C(C)(C)C)c2O)c1O	1.0

**Query** Record CCN(CC)CCCN1C(=O)c2c(c(C)c3c(oc4cc(OC)ccc43)c2C)C1=O : is its growth strictly below 70%?
**Result** 1.0

**Query** Lab log: compare recorded growth with 70%; is it strictly lower for O=C1OCC2=C1C(c1cccc(C(F)(F)F)c1)c1cc3c(cc1N2CCO)CCC3 (stereo not given) ?
**Result** 1.0

**Query** Lab log: compare recorded growth with 70%; is it strictly lower for O=C1c2cccc3cccc(c23)C(=O)N1N1C(=O)c2cccc3c(N4CCNCC4)ccc(c23)C1=O ?
**Result** 1.0

**Query** Here's an entry: NS(=O)(=O)c1ccc(C(=O)N=Nc2c(O)[nH]c3c(F)cccc23)cc1 . Is its growth below 70%?
**Result** 0.0

**Query** For O=C(/C=C/C12c3ccccc3C(c3ccccc31)C1C(=O)NC(=O)C12)c1ccncc1 (stereo not given) , is the recorded growth below the cut-off of 70%?
**Result** 1.0

**Query** Here's an entry: COc1cc(-c2[nH]ncc2Nc2ccc(Cl)cc2)cc(OC)c1OC . Is its growth below 70%?
**Result** 1.0

* * *

System: U251 CNS
test: NCI-60 one-dose screen, 48 h (100 = growth as untreated, 0 = no growth, -100 = all killed)
applied_conditions: 10 µM unless noted
Protocol: Growth inhibition of the U251 human tumor cell line is measured as a screen for anti-cancer activity. Cells are grown in 96 well plates and exposed to the test compound for 48 hours. Compounds are tested at a single concentration, which is 10^-5 M for most compounds. The reported endpoint is percent growth (GI% or GIPRCNT), where numbers from 0 - 100% represent growth inhibition, and numbers from -100% - 0 represent cell death. For example, a value of 40 represents 60% growth inhibition. […]
This is part of a sample that, as a whole, favours compounds with a hit. Of some 83,000 tested, about 20% had one in any assay.
Class membership depends on growth alone; the intervals are zone 1 = under 30%, zone 2 = from 30% up to 90%, zone 3 = 90% and over

Solved cases below.
COc1ccc(C/C(C)=C(\c2ccc(O)cc2)c2ccc(OCCCN(C)C)cc2)cc1	zone 2
CC1(C)C(N)=Nc2cc(OCCCCN3Cc4ccccc4C3)c(OCC3CC3)cc21	zone 2
CCCCC(NC(=O)CN1C(=O)/C(=C/C(C)=C/c2ccccc2)SC1=S)C(=O)O (configuration not stated)	zone 3
C=C1CCC2C3(C)COC(c4ccc(NC(C)=O)cc4)OC3CCC2(C)C1C/C=C1/C(=O)OCC1O (configuration not stated)	zone 2

**Query** Which of the defined bands does the recorded growth of Cc1ccc2c(c1)C(C)Cc1c(ncnc1-n1cnc3cc(C)ccc31)N2C (configuration not stated) sit within?
**Result** zone 1

**Query** Into which category would you place COc1ccccc1/C=C1\COc2ccc(O)cc2C1=O ?
**Result** zone 2
